Test system: SN12C renal
Assay: NCI-60 one-dose screen, 48 h
Details: 10 µM unless noted
Method: Growth inhibition of the SN12C human tumor cell line is measured as a screen for anti-cancer activity. Cells are grown in 96 well plates and exposed to the test compound for 48 hours. Compounds are tested at a single concentration, which is 10^-5 M for most compounds. The reported endpoint is percent growth (GI% or GIPRCNT), where numbers from 0 - 100% represent growth inhibition, and numbers from -100% - 0 represent cell death. For example, a value of 40 represents 60% growth inhibition. […]
About 83,000 compounds went through this panel and 20% of them were active in at least one assay; those are over-represented in the sample as a whole. Active and inactive are the calls of the source. How the source made its calls: active means growth percent below 10; inactive means the rest.
Your reply should match one of these outcome classes. yes (1) (active), no (0) (inactive)

compound	label
COc1cc(C)c(Cc2cnc(N)nc2N)cc1OC	no (0)

Given CC(C)(C)NC(=O)C(OC(=O)c1cccc(Cl)c1)c1ccc(Cl)cc1 (stereo not drawn) , state the outcome it received in this test.
no (0)

How did this test come out for `NCCCNc1nc2ccccc2c2c(=O)c3cccc(F)c3sc12` ?
no (0)
